Exercise: for every item that follows, state its recorded ΔTm Run 2.
- SYSTEM NAME: LmxCLK1 (Leishmania mexicana, UniProt E9AMP2)
- Sequence (E9AMP2 1-422): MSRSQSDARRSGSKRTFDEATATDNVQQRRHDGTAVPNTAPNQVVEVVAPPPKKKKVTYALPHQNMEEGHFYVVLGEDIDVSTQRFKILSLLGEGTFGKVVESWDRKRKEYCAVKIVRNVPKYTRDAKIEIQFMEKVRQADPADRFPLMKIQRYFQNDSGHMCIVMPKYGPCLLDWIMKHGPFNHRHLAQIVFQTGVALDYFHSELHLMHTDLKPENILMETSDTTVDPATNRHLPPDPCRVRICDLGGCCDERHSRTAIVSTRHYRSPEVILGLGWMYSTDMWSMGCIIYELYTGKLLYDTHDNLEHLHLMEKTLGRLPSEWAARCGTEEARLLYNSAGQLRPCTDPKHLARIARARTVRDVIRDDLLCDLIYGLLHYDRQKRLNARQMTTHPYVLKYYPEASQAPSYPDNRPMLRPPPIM
- RUN DESCRIPTION: biochemical
- Type: binding
- ASSAY CONTEXT: DSF, 10 µM compound, 2 µM LmxCLK1, Run 2
Give just the numeric value; °C need not be written.

Query: Please indicate ΔTm Run 2 recorded for O=C(NCc1ccccc1)c1csc(Nc2ccncn2)n1
Result: 0.0

Query: Please indicate ΔTm Run 2 recorded for COc1cc2nccc(Oc3ccc(NC(=O)NC4CC4)c(Cl)c3)c2cc1C(N)=O [Lenvatinib (E7080)]
Result: -0.4

Query: Please indicate ΔTm Run 2 recorded for Nc1cc(C(F)(F)F)c(-c2cc(N3CCOCC3)nc(N3CCOCC3)n2)cn1
Result: 0.2

Query: Please indicate ΔTm Run 2 recorded for Nc1cccc(-c2cc3c(Oc4cccc(O)c4)ncnc3[nH]2)c1
Result: 0.2

Query: Please indicate ΔTm Run 2 recorded for Cc1cc(F)c(Nc2ncnc3cc(OCc4ccccc4)ccc23)cc1O.Cl [ZM 323881 HCl]
Result: 0.0

Query: Please indicate ΔTm Run 2 recorded for O=c1[nH]c2ccc(Cl)cc2c(N[C@@H]2CN3CCC2CC3)c1-c1nc2ccccc2[nH]1
Result: 0.0

Query: Please indicate ΔTm Run 2 recorded for Cn1cnc2c(F)c(Nc3ccc(Br)cc3F)c(C(=O)NOCCO)cc21
Result: -0.4

Query: Please indicate ΔTm Run 2 recorded for c1cncc(CN2CCC(n3ncc4c(N5CCOCC5)nc(-c5ccc6[nH]ccc6c5)nc43)CC2)c1
Result: -0.4

Query: Please indicate ΔTm Run 2 recorded for CCn1c(=O)c(-c2cc[nH]n2)cc2c(C)nc(N)nc21
Result: -0.2

Query: Please indicate ΔTm Run 2 recorded for CNC(=O)c1nn(C)c2c1C(C)(C)Cc1cnc(Nc3ccc(N4CCN(C)CC4)cc3)nc1-2
Result: -0.2

Query: Please indicate ΔTm Run 2 recorded for Cn1cc(-c2ccc3ncc(Cc4ccc5ncccc5c4)n3n2)cn1
Result: 0.0

Query: Please indicate ΔTm Run 2 recorded for O=c1cc(N2CCOCC2)oc2c(-c3cccc4c3sc3ccccc34)cccc12
Result: -0.2

Query: Please indicate ΔTm Run 2 recorded for Cc1ccccc1-n1c(Cn2ncc3c(N)ncnc32)nc2cccc(C)c2c1=O
Result: -0.2

Query: Please indicate ΔTm Run 2 recorded for Cc1c(NC(=O)OC[C@@H]2COCCN2)cn2ncnc(Nc3ccc4c(cnn4Cc4cccc(F)c4)c3)c12
Result: 0.2

Query: Please indicate ΔTm Run 2 recorded for Oc1ccc(-c2nc(-c3ccc(F)cc3)c(-c3ccncc3)[nH]2)cc1
Result: 0.4

Query: Please indicate ΔTm Run 2 recorded for COc1ccc(C(=O)Nc2sc3c(c2C(N)=O)CCCC3)cc1OC
Result: 0.0

Query: Please indicate ΔTm Run 2 recorded for COc1cc2nccc(Oc3ccc(NC(=O)C4(C(=O)Nc5ccc(F)cc5)CC4)cc3)c2cc1OC [Cabozantinib (XL184)]
Result: -0.2

Query: Please indicate ΔTm Run 2 recorded for Cc1ccc(C(=O)Nc2ccc(CN3CCN(C)CC3)c(C(F)(F)F)c2)cc1C#Cc1cnc2cccnn12
Result: -0.1

Query: Please indicate ΔTm Run 2 recorded for COc1cc2nccc(Oc3ccc(NC(=O)Nc4ccc(F)cc4F)c(F)c3)c2cc1OC
Result: -0.2

Query: Please indicate ΔTm Run 2 recorded for Cc1cc(C(C)Nc2ccccc2)c2nc(N3CCOCC3)cc(=O)n2c1 (centres unmarked)
Result: 0.3

Query: Please indicate ΔTm Run 2 recorded for N#Cc1c(Oc2ccc(F)c(NC(=O)Cc3cccc(C(F)(F)F)c3)c2)ccc2nc(NC(=O)C3CC3)sc12
Result: 0.1

Query: Please indicate ΔTm Run 2 recorded for Cc1cc2c(F)c(Oc3ncnn4cc(OC[C@@H](C)OC(=O)[C@H](C)N)c(C)c34)ccc2[nH]1 [Brivanib Alaninate (BMS-582664)]
Result: 0.1

Query: Please indicate ΔTm Run 2 recorded for Cl.Cl.NC1(c2ccc(-c3nc4ccn5c(=O)[nH]nc5c4cc3-c3ccccc3)cc2)CCC1 [MK-2206 2HCl]
Result: -0.1

----------
- SYSTEM NAME: LmxCLK1 (Leishmania mexicana, UniProt E9AMP2)
- RUN DESCRIPTION: biochemical
- Type: binding
- ASSAY CONTEXT: DSF, 10 µM compound, 2 µM LmxCLK1, Run 2
Threshold -0.1 °C. ΔTm Run 2 below it: T. ΔTm Run 2 at it or above: F.

Query: In plain terms, does CC[C@@H]1C(=O)N(C)c2cnc(Nc3ccc(C(=O)N[C@H]4CC[C@H](N5CCN(CC6CC6)CC5)CC4)cc3OC)nc2N1C(C)C come in under -0.1 °C for ΔTm Run 2?
Result: F

Query: In plain terms, does CC(C)CCN1c2nc(Nc3cc(F)c(O)c(F)c3)ncc2N(C)C(=O)C1C (stereo not drawn) come in under -0.1 °C for ΔTm Run 2?
Result: F

Query: In plain terms, does COc1ccc2c(c1)c(C1=C(c3c[nH]c4ccccc34)C(=O)NC1=O)cn2CCCN(C)C come in under -0.1 °C for ΔTm Run 2?
Result: F

Query: In plain terms, does CC(C)(C)c1cc(C=C(C#N)C#N)cc(C(C)(C)C)c1O come in under -0.1 °C for ΔTm Run 2?
Result: T

Query: In plain terms, does Cc1c(F)cc(C(=O)NC2CC2)cc1-c1ccc(C(=O)NCC(C)(C)C)cn1 [Losmapimod (GW856553X)] come in under -0.1 °C for ΔTm Run 2?
Result: F

Query: In plain terms, does Cl.Cl.Fc1cc(-c2cccc3ncc(-c4cnn(C5CCNCC5)c4)nc23)cc(F)c1CN1CCOCC1 [NVP-BSK805 2HCl] come in under -0.1 °C for ΔTm Run 2?
Result: F

Query: In plain terms, does CC(C)(C#N)c1ccc(N2C(=O)OCc3cnc4ccc(-c5cnc6ccccc6c5)cc4c32)cc1 come in under -0.1 °C for ΔTm Run 2?
Result: T

Query: In plain terms, does Cc1ccc(-n2nc(C(C)(C)C)cc2NC(=O)Nc2ccc(OCCN3CCOCC3)c3ccccc23)cc1 come in under -0.1 °C for ΔTm Run 2?
Result: F

Query: In plain terms, does COc1cc(Nc2ncc(F)c(Nc3ccc4c(n3)N(COP(=O)(O)O)C(=O)C(C)(C)O4)n2)cc(OC)c1OC [Fostamatinib (R788)] come in under -0.1 °C for ΔTm Run 2?
Result: F

Query: In plain terms, does C#Cc1cccc(Nc2ncnc3cc(OCCOC)c(OCCOC)cc23)c1.Cl [Erlotinib HCl (OSI-744)] come in under -0.1 °C for ΔTm Run 2?
Result: F

Query: In plain terms, does O=C(NOCC1CC1)c1ccc(F)c(F)c1Nc1ccc(I)cc1Cl come in under -0.1 °C for ΔTm Run 2?
Result: F

Query: In plain terms, does CC[C@H](Nc1ncnc2[nH]cnc12)c1nc2cccc(F)c2c(=O)n1-c1ccccc1 come in under -0.1 °C for ΔTm Run 2?
Result: T

Query: In plain terms, does Cc1cnc(Nc2ccc(N3CCN(C)CC3)cc2)nc1Nc1cccc(S(=O)(=O)NC(C)(C)C)c1 come in under -0.1 °C for ΔTm Run 2?
Result: T

Query: In plain terms, does Cc1ccc(Nc2nccc(N(C)c3ccc4c(C)n(C)nc4c3)n2)cc1S(N)(=O)=O.Cl [Pazopanib HCl (GW786034 HCl)] come in under -0.1 °C for ΔTm Run 2?
Result: F

Query: In plain terms, does CC(C)n1nc(-c2ccc3oc(N)nc3c2)c2c(N)ncnc21 come in under -0.1 °C for ΔTm Run 2?
Result: F

Query: In plain terms, does Nc1ccc(-c2ccc3ncc4ccc(=O)n(-c5cccc(C(F)(F)F)c5)c4c3c2)cn1 come in under -0.1 °C for ΔTm Run 2?
Result: F

Query: In plain terms, does COc1cc2c(Oc3ccc(NC(=O)C4(C(=O)Nc5ccc(F)cc5)CC4)cc3F)ccnc2cc1OCCCN1CCOCC1 come in under -0.1 °C for ΔTm Run 2?
Result: T

Query: In plain terms, does N#C/C(=C(/N)Sc1ccc(N)cc1)c1ccccc1C(F)(F)F come in under -0.1 °C for ΔTm Run 2?
Result: T

Query: In plain terms, does CNC(=O)CN1CCC(Oc2cc3c(Nc4cccc(Cl)c4F)ncnc3cc2OC)CC1 [AZD8931 (Sapitinib)] come in under -0.1 °C for ΔTm Run 2?
Result: T

Query: In plain terms, does Cc1cc(N2CCOCC2)cc2[nH]c(-c3c(NC[C@@H](O)c4cccc(Cl)c4)cc[nH]c3=O)nc12 come in under -0.1 °C for ΔTm Run 2?
Result: F

Query: In plain terms, does N#C/C(=C/c1ccc(O)c(O)c1)C(=O)NCc1ccccc1 come in under -0.1 °C for ΔTm Run 2?
Result: F

Query: In plain terms, does CO[C@H]1C[C@@H]2CC[C@@H](C)[C@@](O)(O2)C(=O)C(=O)N2CCCC[C@H]2C(=O)O[C@H]([C@H](C)C[C@@H]2CC[C@@H](OCCO)[C@H](OC)C2)CC(=O)[C@H](C)/C=C(\C)[C@@H](O)[C@@H](OC)C(=O)[C@H](C)C[C@H](C)/C=C/C=C/C=C/1C [Everolimus (RAD001)] come in under -0.1 °C for ΔTm Run 2?
Result: T

Query: In plain terms, does O=C1NCCc2[nH]c(-c3ccncc3)cc21 come in under -0.1 °C for ΔTm Run 2?
Result: F

Query: In plain terms, does CN1CCN(c2cccc(Nc3nc4c(-c5ccc(S(C)(=O)=O)cc5)cccn4n3)c2)CC1 come in under -0.1 °C for ΔTm Run 2?
Result: F
